Provide the recorded Bliss excess for the entries that follow.
system: TE-4 (Esophageal Squamous Cell Carcinoma); test: Bliss excess, mean over the matrix (fraction); higher = more synergy
Please reply with the number alone, leaving off any unit.

The reported value for COc1cccc(OCCCN)c1-c1cc(Nc2cnc(C#N)cn2)n[nH]1 [Prexasertib] + Cc1cc2ncnn2cc1Nc1ncc2c(n1)n(C1CCOCC1)c(=O)n2C [AZD7648] (first compound max 1 µM, 7x7, partner max 10 µM) in terms of Bliss excess is -0.003

Kindly note the recorded Bliss excess for Cc1cc2ncnn2cc1Nc1ncc2c(n1)n(C1CCOCC1)c(=O)n2C [AZD7648] + O=C(c1cc(Cc2n[nH]c(=O)c3ccccc23)ccc1F)N1CCN(C(=O)C2CC2)CC1 [Olaparib] (first compound max 10 µM, 7x7, partner max 10 µM) , which is 0.0061

For COc1cccc(OCCCN)c1-c1cc(Nc2cnc(C#N)cn2)n[nH]1 [Prexasertib] + CCc1c2c(nc3ccc(O)cc13)-c1cc3c(c(=O)n1C2)COC(=O)[C@]3(O)CC [SN-38] (first compound max 1 µM, 7x7, partner max 0.3 µM) the molecule record lists Bliss excess as 0.107

---

tested on: SW626 (Colorectal Carcinoma); assay: Bliss excess, mean over the matrix (fraction); higher = more synergy
Provide the recorded Bliss excess for the entries that follow.

Bliss excess in this record for NC1(C(=O)N[C@@H](CCO)c2ccc(Cl)cc2)CCN(c2ncnc3[nH]ccc23)CC1 [Capivasertib] + CC(C)n1c(=O)n(C)c2cnc3cc(F)c(-c4ccc(OCCCN5CCCCC5)nc4)cc3c21 [AZD1390] (first compound max 10 µM, 7x7, partner max 0.3 µM) : -0.0828

Bliss excess measured on C=CCn1c(=O)c2cnc(Nc3ccc(N4CCN(C)CC4)cc3)nc2n1-c1cccc(C(C)(C)O)n1 [AZD1775] + C1CN(CCC1(C(=O)N[C@@H](CCO)C2=CC=C(C=C2)Cl)N)C3=NC=NC4=C3C=CN4 [Capivasertib] (first compound max 3 µM, partner max 3 µM) = -0.0606

Query Cc1c2c(nn1C)CSCc1cc(n(C)n1)CSc1cc(c3ccccc3c1)OCCCc1c(C(=O)O)n(C)c3c-2c(Cl)ccc13 [AZD5991] + CC1(C)CCC(CN2CCN(c3ccc(C(=O)NS(=O)(=O)c4ccc(NCC5CCOCC5)c([N+](=O)[O-])c4)c(Oc4cnc5[nH]ccc5c4)c3)CC2)=C(c2ccc(Cl)cc2)C1 [Venetoclax] (first compound max 1 µM, 7x7, partner max 1 µM) yields Bliss excess of -0.0064

Bliss excess for Cc1cc2ncnn2cc1Nc1ncc2c(n1)n(C1CCOCC1)c(=O)n2C [AZD7648] + CCN(CCO)CCCOc1ccc2c(Nc3cc(CC(=O)Nc4cccc(F)c4)[nH]n3)ncnc2c1 [AZD2811] (first compound max 10 µM, 7x7, partner max 1 µM) is -0.0688

Kindly note the recorded Bliss excess for CN(CCO)CC[C@H](CSc1ccccc1)Nc1ccc(S(=O)(=O)NC(=O)c2ccc(N3CCC([C@@H](O)c4ccccc4-c4ccc(Cl)cc4)CC3)cc2)cc1S(=O)(=O)C(F)(F)F [AZD4320] + C1CN(CCC1(C(=O)N[C@@H](CCO)C2=CC=C(C=C2)Cl)N)C3=NC=NC4=C3C=CN4 [Capivasertib] (first compound max 1 µM, 7x7, partner max 3 µM) , which is -0.0682

// Bliss excess lookup, compound = C[C@@H](c1ccc2nccn2c1)n1nnc2ncc(-c3cnn(C)c3)nc21 [Savolitinib] + Cc1c2c(nn1C)CSCc1cc(n(C)n1)CSc1cc(c3ccccc3c1)OCCCc1c(C(=O)O)n(C)c3c-2c(Cl)ccc13 [AZD5991] (first compound max 1 µM, 7x7, partner max 1 µM) , result: 0.0147

Record CC(=O)c1c(C)c2cnc(Nc3ccc(N4CCNCC4)cn3)nc2n(C2CCCC2)c1=O [Palbociclib] + CC1(C)CCC(CN2CCN(c3ccc(C(=O)NS(=O)(=O)c4ccc(NCC5CCOCC5)c([N+](=O)[O-])c4)c(Oc4cnc5[nH]ccc5c4)c3)CC2)=C(c2ccc(Cl)cc2)C1 [Venetoclax] (first compound max 10 µM, 7x7, partner max 1 µM) , field Bliss excess: -0.0152

The compound listed as CC1(C)CCC(CN2CCN(c3ccc(C(=O)NS(=O)(=O)c4ccc(NCC5CCOCC5)c([N+](=O)[O-])c4)c(Oc4cnc5[nH]ccc5c4)c3)CC2)=C(c2ccc(Cl)cc2)C1 [Venetoclax] + C=CCn1c(=O)c2cnc(Nc3ccc(N4CCN(C)CC4)cc3)nc2n1-c1cccc(C(C)(C)O)n1 [AZD1775] (first compound max 1 µM, partner max 1 µM) shows Bliss excess equal to -0.0676

For C[C@@H](c1ccc2nccn2c1)n1nnc2ncc(-c3cnn(C)c3)nc21 [Savolitinib] + CC1(C)CCC(CN2CCN(c3ccc(C(=O)NS(=O)(=O)c4ccc(NCC5CCOCC5)c([N+](=O)[O-])c4)c(Oc4cnc5[nH]ccc5c4)c3)CC2)=C(c2ccc(Cl)cc2)C1 [Venetoclax] (first compound max 1 µM, 7x7, partner max 1 µM) the compound record lists Bliss excess as -0.066

Field Bliss excess (entry Cc1cc2ncnn2cc1Nc1ncc2c(n1)n(C1CCOCC1)c(=O)n2C [AZD7648] + C[C@@H]1COCCN1C2=NC(=NC(=C2)C3(CC3)[S@](=N)(=O)C)C4=C5C=CNC5=NC=C4 [AZD6738] (first compound max 10 µM, 7x7, partner max 10 µM) ) reads 0.0302

Value of measured Bliss excess for the entry CN(CCO)CC[C@H](CSc1ccccc1)Nc1ccc(S(=O)(=O)NC(=O)c2ccc(N3CCC([C@@H](O)c4ccccc4-c4ccc(Cl)cc4)CC3)cc2)cc1S(=O)(=O)C(F)(F)F [AZD4320] + Cc1cc2ncnn2cc1Nc1ncc2c(n1)n(C1CCOCC1)c(=O)n2C [AZD7648] (first compound max 1 µM, 7x7, partner max 10 µM) : -0.0526

Record CCN(CCO)CCCOc1ccc2c(Nc3cc(CC(=O)Nc4cccc(F)c4)[nH]n3)ncnc2c1 [AZD2811] + C=CCn1c(=O)c2cnc(Nc3ccc(N4CCN(C)CC4)cc3)nc2n1-c1cccc(C(C)(C)O)n1 [AZD1775] (first compound max 1 µM, partner max 1 µM) , field Bliss excess: -0.0443

Bliss excess for Cc1c2c(nn1C)CSCc1cc(n(C)n1)CSc1cc(c3ccccc3c1)OCCCc1c(C(=O)O)n(C)c3c-2c(Cl)ccc13 [AZD5991] + Cn1cnc2c(F)c(Nc3ccc(Br)cc3Cl)c(C(=O)NOCCO)cc21 [Selumetinib] (first compound max 1 µM, 7x7, partner max 3 µM) is 0.0233

---

tested on: Mewo (Melanoma); test: Bliss excess, mean over the matrix (fraction); higher = more synergy
READOUT: Bliss excess

For CC1(C)CCC(CN2CCN(c3ccc(C(=O)NS(=O)(=O)c4ccc(NCC5CCOCC5)c([N+](=O)[O-])c4)c(Oc4cnc5[nH]ccc5c4)c3)CC2)=C(c2ccc(Cl)cc2)C1 [Venetoclax] + Cn1cnc2c(F)c(Nc3ccc(Br)cc3Cl)c(C(=O)NOCCO)cc21 [Selumetinib] (first compound max 1 µM, 7x7, partner max 3 µM) on Mewo (Melanoma), measured Bliss excess was -0.0252

Here NC1(C(=O)N[C@@H](CCO)c2ccc(Cl)cc2)CCN(c2ncnc3[nH]ccc23)CC1 [Capivasertib] + CCN(CCO)CCCOc1ccc2c(Nc3cc(CC(=O)Nc4cccc(F)c4)[nH]n3)ncnc2c1 [AZD2811] (first compound max 10 µM, 7x7, partner max 1 µM) was tested on Mewo (Melanoma), and its Bliss excess came to 0.0228

# value of Bliss excess, Mewo (Melanoma), item CCc1c2c(nc3ccc(O)cc13)-c1cc3c(c(=O)n1C2)COC(=O)[C@]3(O)CC [SN-38] + CN(C)CCCOc1ccc(-c2ccc3ncc4c(c3c2)n(C2CCOCC2)c(=O)n4C)cn1 [AZD0156] (first compound max 0.3 µM, 7x7, partner max 1 µM) = -0.0722

---

test system: RKO (Colorectal Carcinoma); test: combination Emax (second highest fraction inhibited in the dose matrix, 72 h); higher = more inhibition; extreme values may be limits of the assay
Record form. Attribute: combination Emax. Fill in for each entry.
Please reply with the number alone, leaving off any unit.

The compound listed as N#Cc1cnc(Nc2cc(NC[C@H]3CNCCO3)c(C(F)(F)F)cn2)cn1 [SRA737] + CCc1c2c(nc3ccc(O)cc13)-c1cc3c(c(=O)n1C2)COC(=O)[C@]3(O)CC [SN-38] (first compound max 10 µM, 7x7, partner max 0.3 µM) has a reported combination Emax of 0.925

Value of measured combination Emax for the entry COc1cc2c(cc1OCCCCCOc1cc3c(cc1OC)C(=O)N1C=C(C)C[C@H]1C=N3)N=C[C@@H]1CC(C)=CN1C2=O [SG3199] + O=C(c1cc(Cc2n[nH]c(=O)c3ccccc23)ccc1F)N1CCN(C(=O)C2CC2)CC1 [Olaparib] (first compound max 0.001 µM, 7x7, partner max 10 µM) : 0.114

// recorded combination Emax for Cc1cc2ncnn2cc1Nc1ncc2c(n1)n(C1CCOCC1)c(=O)n2C [AZD7648] + O=C(c1cc(Cc2n[nH]c(=O)c3ccccc23)ccc1F)N1CCN(C(=O)C2CC2)CC1 [Olaparib] (first compound max 10 µM, 7x7, partner max 10 µM) : 0.242

In plain terms, N#Cc1cnc(Nc2cc(NC[C@H]3CNCCO3)c(C(F)(F)F)cn2)cn1 [SRA737] + C=CCn1c(=O)c2cnc(Nc3ccc(N4CCN(C)CC4)cc3)nc2n1-c1cccc(C(C)(C)O)n1 [AZD1775] (first compound max 10 µM, partner max 1 µM) has a documented combination Emax of 0.957

Sample C=CCn1c(=O)c2cnc(Nc3ccc(N4CCN(C)CC4)cc3)nc2n1-c1cccc(C(C)(C)O)n1 [AZD1775] + Nc1ccn([C@@H]2O[C@H](CO)[C@@H](O)C2(F)F)c(=O)n1 [Gemcitabine] (first compound max 1 µM, partner max 0.3 µM) ; combination Emax observed: 0.882

Entry CN(CCO)CC[C@H](CSc1ccccc1)Nc1ccc(S(=O)(=O)NC(=O)c2ccc(N3CCC([C@@H](O)c4ccccc4-c4ccc(Cl)cc4)CC3)cc2)cc1S(=O)(=O)C(F)(F)F [AZD4320] + C1CN(CCC1(C(=O)N[C@@H](CCO)C2=CC=C(C=C2)Cl)N)C3=NC=NC4=C3C=CN4 [Capivasertib] (first compound max 1 µM, 7x7, partner max 3 µM) , combination Emax reported as 0.272

In plain terms, CC1(C)CCC(CN2CCN(c3ccc(C(=O)NS(=O)(=O)c4ccc(NCC5CCOCC5)c([N+](=O)[O-])c4)c(Oc4cnc5[nH]ccc5c4)c3)CC2)=C(c2ccc(Cl)cc2)C1 [Venetoclax] + C[C@@H](Nc1cc(F)cc(F)c1)c1cc(C(=O)N(C)C)cc2c(=O)cc(N3CCOCC3)oc12 [AZD8186] (first compound max 1 µM, 7x7, partner max 3 µM) has a documented combination Emax of 0.113
